PROTOCOL_DESCRIPTION: chemical genetic growth profiling, strain panel (AID 1159580);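 note: tested at 20 µM; growth read once vehicle control cultures reached saturation at 30 °C; 1 = growth at the plate median or of vehicle wells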
SETUP_CONDITIONS: S. cerevisiae deletion strains, growth OD, locus YOR270C, strain vph1, stronger effect = lower value
Out of some 5,500 compounds screened, about 2,000 (36%) were called active. About 18% were inconclusive and are not listed. The list shows a part of the results.
# maps each entry to its normalized growth

Known normalized growth results, listed for orientation:
O=C(O)P(=O)(O)O : 0.961 (inactive)
Nc1nc2c(c(=O)[nH]1)N(C=O)C(CNc1ccc(C(=O)N[C@@H](CCC(=O)O)C(=O)O)cc1)CN2 (some centres undefined) : 0.957 (inactive)
O=C1CN(/N=C\c2ccc([N+](=O)[O-])o2)C(=O)N1 : 0.874 (inactive)

Please look at the following compound next.
Query: Output normalized growth of `Cc1ccc(C(C)C)cc2c(C)ccc1-2`
Reply: 1.1 (inactive)

====

PROTOCOL_DESCRIPTION: chemical genetic growth profiling, strain panel (AID 1159580)
SETUP_CONDITIONS: S. cerevisiae deletion strains, growth OD, locus YDR054C, strain cdc34, stronger effect = lower value
The campaign covered roughly 5,500 compounds. About 2,000 (36%) were called active. About 18% were inconclusive and are not listed. Some of the results follow.
MEASURED_ENDPOINT: normalized growth
Answer with a bare number; do not write a unit.

Known normalized growth results, listed for orientation:
CCc1cc2c(cc1-c1csc(C/C(N)=N\O)n1)C(C)(C)CCC2(C)C : 0.97
O=C(CCSc1cccs1)Nc1cccc(C(F)(F)F)c1 : 0.916
CC1(C)C/C(=N/Nc2ccc(C(F)(F)F)cc2)c2cc(C(C)(C)C)c(O)c(O)c2O1 : 0.968
CCCCCc1ccc(S(=O)(=O)Nc2ccc3c(c2)C(=O)OC3)cc1 : 0.974
CCC1CCC(C)N(C(=S)Nc2ccc(Br)cc2C)C1 (configuration not stated) : 0.953
CCCCCCCC1CCC/C1=N/OC(=O)c1cccs1 (configuration not stated) : 0.989
Cc1onc(-c2ccccc2Cl)c1-c1nc2ccccc2c(=O)o1 : 0.964
N#CC1=C(N)C(C#N)(C#N)C2(CCCCC2)C2CCCC=C12 (configuration not stated) : 0.973
O=S(=O)(Nc1cc(C(F)(F)F)ccc1F)c1cc(C(F)(F)F)ccc1Cl : 0.94
NC(=NC(=O)c1ccc(Cl)cc1)c1cccs1 : 0.951

Query: Output normalized growth of `O=C(Nc1ccccn1)c1cc(-c2ccccc2)c(C(F)(F)F)s1`
Reply: 0.947

Query: Output normalized growth of COc1ccccc1C(C[N+](=O)[O-])c1c(N)n(C)c(=O)n(C)c1=O (configuration not stated)
Reply: 0.945

====

PROTOCOL_DESCRIPTION: chemical genetic growth profiling, strain panel (AID 1159580)
SETUP_CONDITIONS: S. cerevisiae deletion strains, growth OD, locus YLR320W, strain mms22, stronger effect = lower value
The campaign covered roughly 5,500 compounds. About 2,000 (36%) were called active. Another 18% or so got no clear call; they are omitted. The list shows a part of the results.
Mark each entry True if its normalized growth sits below 1, and False for all others.

The examples below pair each entry with its known result.
O=C1CN(/N=C\c2ccc([N+](=O)[O-])o2)C(=O)N1 : True
CCOC(=O)CCCCCCCCCCCCC1C=CCC1 (configuration not stated) : True
Nc1c(Br)cc(Br)cc1CNC1CCC(O)CC1 (configuration not stated) : False
C[C@H](COc1ccccc1)N[C@H](C)[C@H](O)c1ccc(O)cc1 : True

Moving on to another compound below.
Query: Could you please tell me whether normalized growth recorded for `COc1ccc(/C=C/C(=O)c2cc(O)ccc2O)cc1` is less than 1?
Reply: True

====

PROTOCOL_DESCRIPTION: chemical genetic growth profiling, strain panel (AID 1159580)
SETUP_CONDITIONS: S. cerevisiae deletion strains, growth OD, locus YNL322C, strain KRE1
Among all 5,500 compounds or so, about 2,000 (36%) were called active. Another 18% or so got no clear call; they are omitted. Cut-off read from the data, not from the text of the source: active = normalized growth mostly below about 0.91 (no sharp cut-off); inconclusive = no clear call, values can overlap the other calls; inactive = mostly above about 0.92. The list shows a part of the results.
Bench note: report the call from 1 = active, -1 = inactive

The examples below pair each entry with its known result.
COC(=O)c1ccc([N+](=O)[O-])cc1Cl : -1
C=CCc1cc(OC)c2c(c1OC)OCO2 : -1
COS(C)(=O)=O : -1
CC12CCC3C(CC=C4CC(O)CCC43C)C1CCC2=O (stereo not given) : 1
COc1ccc(/C=C/C(=O)Nc2ccccc2C(=O)O)cc1OC : -1

Query: Assay result, entry `CCn1cc(C(=O)O)c(=O)c2ccc(Cc3ccccc3)nc21` — outcome?
Reply: -1

Query: Assay result, entry `NCc1ccc(S(N)(=O)=O)cc1` — outcome?
Reply: -1

Query: Assay result, entry `c1ccc2[nH]c(-c3cscn3)nc2c1` — outcome?
Reply: -1

====

PROTOCOL_DESCRIPTION: chemical genetic growth profiling, strain panel (AID 1159580)
SETUP_CONDITIONS: S. cerevisiae deletion strains, growth OD, locus YPR135W, strain CTF4, stronger effect = lower value
Out of some 5,500 compounds screened, about 2,000 (36%) were called active. Inconclusive results (about 18%) are left out. The list shows a part of the results.
# maps each entry to its normalized growth

Known normalized growth results, listed for orientation:
COC(=O)c1cc(OC)c(OC)cc1NS(=O)(=O)c1ccc(C)cc1 : 0.93 (inactive)
Cc1onc(-c2ccccc2Cl)c1C(=O)Nc1ccc2c(c1)OCO2 : 1.14 (inactive)
c1ccc(CSC2=NCCCN2)cc1 : 1.08 (inactive)
O=C(O)c1cc(C(F)(F)F)ccc1F : 0.905 (inactive)

Query: Output normalized growth of `O=C1CC(c2ccccc2)=NO1`
Reply: 0.528 (active)

Query: Output normalized growth of `Fc1cccc(Cl)c1Cn1nnc(N2CCCCC2)n1`
Reply: 0.534 (active)

Query: Output normalized growth of `CCOC(=O)c1c(C)n(-c2ccccc2)c2ccc(O)cc12`
Reply: 0.911 (inactive)

====

PROTOCOL_DESCRIPTION: chemical genetic growth profiling, strain panel (AID 1159580);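 note: tested at 20 µM; growth read once vehicle control cultures reached saturation at 30 °C; 1 = growth at the plate median or of vehicle wells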
SETUP_CONDITIONS: S. cerevisiae deletion strains, growth OD, locus YPR141C, strain kar3, stronger effect = lower value
Screen size: about 5,500 compounds; about 2,000 (36%) were called active. Inconclusive results (about 18%) are left out. The list shows a part of the results.
MEASURED_ENDPOINT: normalized growth
Answer with a bare number; do not write a unit.

CC[C@@H](C(=O)[C@@H](C)[C@@H](O)[C@H](C)[C@@H]1O[C@@H]([C@@H](CC)C(=O)O)CC[C@@H]1C)[C@H]1OC2(C=C[C@@H](O)[C@]3(CC[C@@](C)([C@H]4CC[C@](O)(CC)[C@H](C)O4)O3)O2)[C@H](C)C[C@@H]1C (some centres undefined) : 1
CC1=CC(=O)CC(C)(C)C1(O)/C=C/C(C)=C\C(=O)O (centres undefined) : 0.954
Nc1nccs1 : 0.973

Please look at the following compound next.
Query: Output normalized growth of CC1(C)C2CC(=O)O[C@@]3(C)C4=CC(=O)O[C@@H](c5ccoc5)[C@]4(C)CCC3[C@@]2(C)C=C[C@H]1O (some centres undefined)
Reply: 0.987

====

# maps each entry to its normalized growth
PROTOCOL_DESCRIPTION: chemical genetic growth profiling, strain panel (AID 1159580);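 note: tested at 20 µM; growth read once vehicle control cultures reached saturation at 30 °C; 1 = growth at the plate median or of vehicle wells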
SETUP_CONDITIONS: S. cerevisiae deletion strains, growth OD, locus YBR231C, strain swc5, stronger effect = lower value
Hit rate of the full screen: of about 5,500 compounds, about 2,000 (36%) were called active. Not shown: some 18% with an inconclusive outcome. Some of the results follow.
Answer with a bare number; do not write a unit.

Known normalized growth results, listed for orientation:
CC1=CC(=O)CC(C)(C)C1(O)/C=C/C(C)=C\C(=O)O (centres undefined) : 1.03
CCCNC(C)C(=O)Nc1ccccc1C (centres undefined) : 1.01
CCn1cc(C(=O)O)c(=O)c2cc3c(cc21)OCO3 : 0.979

Query: Output normalized growth of `CCn1cc(C(=O)O)c(=O)c2ccc(C)nc21`
Reply: 0.936

====

# maps each entry to its normalized growth
PROTOCOL_DESCRIPTION: chemical genetic growth profiling, strain panel (AID 1159580);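 note: tested at 20 µM; growth read once vehicle control cultures reached saturation at 30 °C; 1 = growth at the plate median or of vehicle wells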
SETUP_CONDITIONS: S. cerevisiae deletion strains, growth OD, locus YGL078C, strain dbp3, stronger effect = lower value
Out of some 5,500 compounds screened, about 2,000 (36%) were called active. Inconclusive results (about 18%) are left out. This is one part of the list.
Answer with a bare number; do not write a unit.

C=CCN1CC[C@]23c4c5ccc(O)c4OC2C(=O)CC[C@@]3(O)[C@H]1C5 (stereo partly specified) : 1

Please look at the following compound next.
Query: Output normalized growth of `COc1c(C(=O)O)ccc2c1CCC(C)(C)O2`
Reply: 0.964
